meta.source: paper PMC10350915

assay type: in vitro ADME; conditions: human, plasma, plasma protein binding (PPB)
attribute.measured: fraction unbound at 60 min

Recorded result, CC(C)C[C@@H](N)C(=O)N[C@@H](CC(C)C)C(=O)N[C@@H](CCCNC(=N)N)C(=O)N[C@@H](Cc1c[nH]c2ccccc12)C(=O)N[C@@H](CO)C(=O)N[C@@H](CCCNC(=N)N)C(=O)N[C@@H](CCCCN)C(=O)N[C@@H](CC(C)C)C(=O)N1CCC[C@H]1C(=O)N[C@@H](CS)C(=O)N[C@H](C(=O)N[C@@H](CO)C(=O)N[C@@H](CCCCNC(=O)CN1CCN(CC(=O)O)CCN(CC(=O)O)CCN(CC(=O)O)CC1)C(=O)O)C(C)C [^177Lu-6, metal not drawn] , fraction unbound at 60 min: 0.62
